Tested On: UniProt:P22309
Sequence (P22309 whole entry): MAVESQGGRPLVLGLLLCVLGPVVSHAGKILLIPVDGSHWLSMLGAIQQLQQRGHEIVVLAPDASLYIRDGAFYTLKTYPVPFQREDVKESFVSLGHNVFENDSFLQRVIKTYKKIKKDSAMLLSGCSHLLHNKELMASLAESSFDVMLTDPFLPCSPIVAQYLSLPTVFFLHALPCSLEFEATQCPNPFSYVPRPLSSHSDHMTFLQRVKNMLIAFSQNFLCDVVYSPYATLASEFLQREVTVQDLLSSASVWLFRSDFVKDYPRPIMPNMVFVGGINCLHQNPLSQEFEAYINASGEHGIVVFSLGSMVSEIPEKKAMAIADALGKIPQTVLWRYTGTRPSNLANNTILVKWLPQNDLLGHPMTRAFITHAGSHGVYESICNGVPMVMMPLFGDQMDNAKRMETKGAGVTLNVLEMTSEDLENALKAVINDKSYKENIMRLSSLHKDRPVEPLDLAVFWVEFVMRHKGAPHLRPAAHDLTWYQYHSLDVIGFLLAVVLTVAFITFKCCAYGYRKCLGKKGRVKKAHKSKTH

{"Compound": "C[C@@H]1CN(c2ccc(S(C)(=O)=O)cc2F)CCN1c1nccc(C(=O)NC2C3CC4CC2CC(O)(C4)C3)n1 (stereo partly specified)", "IC50, µM": 5.6}

---

Observed IC50 values for UniProt:P08684 are listed in what follows.
Sequence (P08684 whole entry): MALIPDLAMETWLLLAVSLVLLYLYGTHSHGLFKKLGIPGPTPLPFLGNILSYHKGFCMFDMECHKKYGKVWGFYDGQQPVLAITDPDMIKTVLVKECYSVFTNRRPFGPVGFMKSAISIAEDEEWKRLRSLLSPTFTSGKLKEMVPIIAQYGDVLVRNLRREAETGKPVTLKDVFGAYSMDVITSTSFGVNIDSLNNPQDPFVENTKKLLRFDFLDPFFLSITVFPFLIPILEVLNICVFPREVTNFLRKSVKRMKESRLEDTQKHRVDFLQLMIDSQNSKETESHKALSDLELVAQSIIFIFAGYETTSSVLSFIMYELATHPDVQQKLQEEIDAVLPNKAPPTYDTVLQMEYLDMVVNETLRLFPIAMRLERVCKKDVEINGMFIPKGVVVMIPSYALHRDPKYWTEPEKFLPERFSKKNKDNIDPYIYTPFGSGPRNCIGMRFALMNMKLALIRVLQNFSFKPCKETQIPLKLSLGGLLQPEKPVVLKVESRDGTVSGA
Assay Readout: IC50

{"Molecule": "C[C@@H]1CN(c2ccc(S(C)(=O)=O)cc2F)CCN1c1nccc(C(=O)NC2C3CC4CC2CC(O)(C4)C3)n1 (some centres not stated)", "Assay Readout": "IC50", "Observed Value": "> 10 µM"}
{"Molecule": "C[C@@H]1CN(c2ccc(S(C)(=O)=O)cc2)CCN1c1nccc(C(=O)NC2C3CC4CC2CC(O)(C4)C3)n1 (some centres not stated)", "Assay Readout": "IC50", "Observed Value": "> 10 µM"}

---

Assay Procedure: Clearance in rat at 1 mg/kg, iv
Assay type: ADME, organism-based
Test Conditions: in vivo

{"Molecule": "C[C@@H]1CN(c2ccc(S(C)(=O)=O)cc2F)CCN1c1nccc(C(=O)NC2C3CC4CC2CC(O)(C4)C3)n1 (stereo partly specified)", "Unit Tag": "L/h/kg", "clearance": 0.93}

---

Assay Procedure: Volume of distribution at steady state in dog at 0.5 mg/kg, iv
Type: ADME, organism-based, Canis lupus familiaris
Test Conditions: in vivo, read-out: Vdss
Assay Readout: Vd (L/kg)

{"Compound": "C[C@@H]1CN(c2ccc(S(C)(=O)=O)cc2F)CCN1c1nccc(C(=O)NC2C3CC4CC2CC(O)(C4)C3)n1 (stereo partly specified)", "Assay Readout": "Vd", "Observed Value": 2.4}

---

Assay Procedure: Toxicity in female mouse during 4-week repeated once daily oral-dose toxicity study
Test Conditions: in vivo, time 4 weeks

{"Molecule": "C[C@@H]1CN(c2ccc(S(C)(=O)=O)cc2F)CCN1c1nccc(C(=O)NC2C3CC4CC2CC(O)(C4)C3)n1 (stereo partly specified)", "NOAEL at 672 h / mg/kg": 625}

---

Assay Procedure: Clearance in mouse at 1 mg/kg, iv
Format: ADME, organism-based
Test Conditions: in vivo
Assay Readout: clearance (mL/min/kg)

{"Compound": "C[C@@H]1CN(c2ccc(S(C)(=O)=O)cc2F)CCN1c1nccc(C(=O)NC2C3CC4CC2CC(O)(C4)C3)n1 (stereo partly specified)", "Assay Readout": "clearance", "Unit Tag": "mL/min/kg", "Observed Value": 7}

---

Assay Procedure: Ratio of drug level in adipose tissue to plasma of mouse at 10 mg/kg, po measured after 2 hrs post dose
Format: ADME, organism-based

{"Compound": "C[C@@H]1CN(c2ccc(S(C)(=O)=O)cc2F)CCN1c1nccc(C(=O)NC2C3CC4CC2CC(O)(C4)C3)n1 (stereo partly specified)", "Kp at 2 h": 0.62}

---

Assay Procedure: AUC in mouse at 5 mg/kg, po
Assay type: ADME, organism-based
Design: dose 5 mg/kg
Test Conditions: in vivo

{"Compound": "C[C@@H]1CN(c2ccc(S(C)(=O)=O)cc2F)CCN1c1nccc(C(=O)NC2C3CC4CC2CC(O)(C4)C3)n1 (stereo partly specified)", "Unit Tag": "ng·h/mL", "AUC": 11300}

---

Assay Procedure: Cmax in mouse at 5 mg/kg, po
Type: ADME, organism-based
Set-up: route oral, dose 5 mg/kg
Test Conditions: in vivo
Assay Readout: Cmax (ng/mL)

{"Compound": "C[C@@H]1CN(c2ccc(S(C)(=O)=O)cc2F)CCN1c1nccc(C(=O)NC2C3CC4CC2CC(O)(C4)C3)n1 (stereo partly specified)", "Assay Readout": "Cmax", "Observed Value": 2210}

---

Assay Procedure: Half life in dog at 0.5 mg/kg, iv
Assay type: ADME, organism-based, Canis lupus familiaris
Test Conditions: in vivo

{"Molecule": "C[C@@H]1CN(c2ccc(S(C)(=O)=O)cc2F)CCN1c1nccc(C(=O)NC2C3CC4CC2CC(O)(C4)C3)n1 (stereo partly specified)", "half-life / h": 4.7}

---

Assay Procedure: Tmax in mouse at 5 mg/kg, po
Type: ADME, organism-based
Test Conditions: in vivo
Assay Readout: Tmax (h)

{"Compound": "C[C@@H]1CN(c2ccc(S(C)(=O)=O)cc2F)CCN1c1nccc(C(=O)NC2C3CC4CC2CC(O)(C4)C3)n1 (stereo partly specified)", "Observed Value": 1}

---

Assay Procedure: Inhibition of PDE3 (unknown origin)
Set-up: species or system Homo sapiens
pIC50: −log10 of the molar value.
Assay Readout: pIC50

{"Compound": "C[C@@H]1CN(c2ccc(S(C)(=O)=O)cc2F)CCN1c1nccc(C(=O)NC2C3CC4CC2CC(O)(C4)C3)n1 (stereo partly specified)", "Observed Value": 5.27}

---

Assay Procedure: Oral bioavailability in mouse at 5 mg/kg
Format: ADME, organism-based
Test Conditions: in vivo

{"Compound": "C[C@@H]1CN(c2ccc(S(C)(=O)=O)cc2F)CCN1c1nccc(C(=O)NC2C3CC4CC2CC(O)(C4)C3)n1 (stereo partly specified)", "bioavailability / %": 96}

---

Assay Procedure: AUC in mouse at 1 mg/kg, iv
Format: ADME, organism-based
Set-up: dose 1 mg/kg
Test Conditions: in vivo

{"Molecule": "C[C@@H]1CN(c2ccc(S(C)(=O)=O)cc2F)CCN1c1nccc(C(=O)NC2C3CC4CC2CC(O)(C4)C3)n1 (stereo partly specified)", "Unit Tag": "ng·h/mL", "AUC": 2350}

---

Assay Procedure: Clearance in dog at 0.5 mg/kg, iv
Assay type: ADME, organism-based, Canis lupus familiaris
Test Conditions: in vivo

{"Compound": "C[C@@H]1CN(c2ccc(S(C)(=O)=O)cc2F)CCN1c1nccc(C(=O)NC2C3CC4CC2CC(O)(C4)C3)n1 (stereo partly specified)", "clearance, mL/min/kg": 6}

---

Tested On: Mineralocorticoid receptor (Homo sapiens, UniProt P08235)
Sequence (P08235 whole entry): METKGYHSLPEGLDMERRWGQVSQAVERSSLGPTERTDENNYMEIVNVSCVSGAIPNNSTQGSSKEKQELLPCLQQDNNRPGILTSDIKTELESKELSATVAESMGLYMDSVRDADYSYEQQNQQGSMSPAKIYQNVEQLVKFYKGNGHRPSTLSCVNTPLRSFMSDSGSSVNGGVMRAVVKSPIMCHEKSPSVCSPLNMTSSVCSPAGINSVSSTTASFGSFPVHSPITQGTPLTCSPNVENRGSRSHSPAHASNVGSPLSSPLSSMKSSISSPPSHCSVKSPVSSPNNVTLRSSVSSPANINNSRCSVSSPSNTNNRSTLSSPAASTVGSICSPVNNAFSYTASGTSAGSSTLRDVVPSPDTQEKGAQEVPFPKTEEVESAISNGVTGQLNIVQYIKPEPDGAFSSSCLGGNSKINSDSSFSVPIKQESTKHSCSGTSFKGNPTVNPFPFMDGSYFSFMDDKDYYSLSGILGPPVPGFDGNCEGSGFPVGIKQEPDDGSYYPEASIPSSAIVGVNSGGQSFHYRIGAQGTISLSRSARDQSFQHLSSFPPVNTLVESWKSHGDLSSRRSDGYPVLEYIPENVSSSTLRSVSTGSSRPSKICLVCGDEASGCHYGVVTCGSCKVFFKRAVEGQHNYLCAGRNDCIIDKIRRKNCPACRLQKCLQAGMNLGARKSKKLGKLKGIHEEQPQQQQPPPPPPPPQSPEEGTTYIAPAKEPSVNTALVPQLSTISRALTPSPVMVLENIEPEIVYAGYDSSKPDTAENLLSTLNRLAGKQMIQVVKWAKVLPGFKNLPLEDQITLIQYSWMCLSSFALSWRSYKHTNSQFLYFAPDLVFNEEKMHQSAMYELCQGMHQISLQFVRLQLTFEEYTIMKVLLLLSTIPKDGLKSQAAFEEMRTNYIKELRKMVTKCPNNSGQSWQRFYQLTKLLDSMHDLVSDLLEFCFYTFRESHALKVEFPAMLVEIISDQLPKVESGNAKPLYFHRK
Assay Procedure: Agonist activity at mineralocorticoid receptor (unknown origin)

{"Compound": "C[C@@H]1CN(c2ccc(S(C)(=O)=O)cc2F)CCN1c1nccc(C(=O)NC2C3CC4CC2CC(O)(C4)C3)n1 (stereo partly specified)", "EC50": "> 5 µM"}
